The values you see were collected from patent US20120121691A1.

Assignment: determine reported Pearson Coef. (r), sphingolipid level vs cytotoxicity for the given compounds.
- System: CCRF-CEM
- Procedure: Statistical analyses. Descriptive statistics and significance testing were performed using Microsoft Excel. The Excel function “t.test” was used for Student's T-testing (two-tailed, type-2). Propagated standard deviations were calculated using standard methods. Correlation analyses were performed using Sigmaplot 11 software. […]
Give bare numbers.

Before answering, review these 5 worked examples.
{"columns": ["COMPOUND", "RECORDED NUMBER"],
 "data": [
  ["CCCCCCCCCCCCCCCCCCCC(=O)N[C@@H](CO)[C@H](O)CCCCCCCCCCCCCCC", 0.20],
  ["CCCCCCCCC=CCCCCCCCCCCCC(=O)NC(CO)C(O)C=CCCCCCCCCCCCCC (stereo not drawn)", "−0.23"],
  ["CCCCCCCCCCCCCCC[C@@H](O)[C@H](CO)NC(=O)CCCCCCCCCCCCC", 0.12],
  ["CCCCCCCCCCCCCC=CC(O)C(CO)NC(=O)CCCCCCCCCCCCCCCCCCCCC (stereo not drawn)", 0.42],
  ["CCCCCCCC/C=C\\CCCCCCCCCCCCCC(=O)N[C@@H](CO)[C@H](O)/C=C/CCCCCCCCCCCCC", "−0.27"]
]}

# batch: return Pearson Coef. (r), sphingolipid level vs cytotoxicity for each of the 6 compounds below
1. CCCCCCCCCCCCCCCCCC(=O)N[C@@H](CO)[C@H](O)CCCCCCCCCCCCCCC
2. CCCCCCCCCCCCCCCCCCCCCC(=O)N[C@@H](CO)[C@H](O)CCCCCCCCCCCCCCC
3. CCCCCCCCCCCCCCC[C@@H](O)[C@@H](N)CO [Sphinganine, (2S,3R)-2-aminooctadecane-1,3-diol, reference compound]
4. CCCCCCCCCCCCCC=CC(O)C(CO)NC(=O)CCCCCCCCCCCCCCCCC (stereo not drawn)
5. CCCCCCCCCCCCCCC[C@@H](O)[C@@H](N)COP(=O)(O)O
6. CCCCCCCCCCCCC/C=C/[C@@H](O)[C@@H](N)CO

*A*
0.22
0.67
−0.21
0.14
0.44
0.02

*Q* # Pearson Coef. (r), sphingolipid level vs cytotoxicity lookup, item CCCCCCCCCCCCCC=CC(O)C(CO)NC(=O)CCCCCCCCCCCCCCCCCCC (stereo not drawn)
*A* 0.01
